# Tgt: human 5HT1Dβ receptor (Homo sapiens, UniProt P28222)
# Construct: expressed in transfected cells; host or cells: CHO-K1
# Sequence (P28222 whole entry): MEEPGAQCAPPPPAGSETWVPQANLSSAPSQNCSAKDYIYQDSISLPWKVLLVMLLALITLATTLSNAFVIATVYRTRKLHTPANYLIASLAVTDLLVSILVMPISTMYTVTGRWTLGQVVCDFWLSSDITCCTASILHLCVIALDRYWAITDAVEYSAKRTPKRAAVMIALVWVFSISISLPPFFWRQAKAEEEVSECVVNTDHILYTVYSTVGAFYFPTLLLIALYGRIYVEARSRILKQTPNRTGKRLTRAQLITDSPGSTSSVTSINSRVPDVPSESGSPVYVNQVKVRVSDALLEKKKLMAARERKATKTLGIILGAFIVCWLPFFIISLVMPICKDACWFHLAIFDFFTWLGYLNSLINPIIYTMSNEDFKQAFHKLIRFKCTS
# Measurement Description: Binding to human 5HT1Dβ receptor ([3H]-5CT displacement)
# Applied Conditions: [3H]-5CT 2 nM; cell membrane preparation; read-out: 5HT1Dβ Ki (affinity for the receptors concerned)
pKi: −log10 of the molar value. Counter-ions that a name gives are not always drawn.
Measurement Name: pKi

Previously resolved entries follow.
>  <Compound>
COc1ccc(NC(=O)N2CCN(c3ccccc3C)CC2)cc1N1CCN(C)CC1 [Example 1]

>  <Measurement Name>
pKi

>  <Experimental Result>
8.64

$$$$
>  <Compound>
COc1ccc(NC(=O)N2CCN(c3ccc4c(c3)OCO4)CC2)cc1N1CCN(C)CC1 [Example 7, difumarate]

>  <Measurement Name>
pKi

>  <Experimental Result>
8.09

$$$$

[P] COc1ccc(N2CCN(C(=O)Nc3ccc(OC)c(N4CCN(C)CC4)c3)CC2)cc1 [Example 3, fumarate]
[Q] COc1ccc(NC(=O)N2CCN(c3ccccc3OC)CC2)cc1N1CCN(C)CC1 [Example 2, fumarate]
Hey, between P and Q which has a smaller measured pKi? Answer format: the label of the selected item.
P
(P: 8.08, Q: 8.70)

====

# Tgt: human 5HT1Dα receptor (Homo sapiens)
# Construct: expressed in transfected cells
# Sequence (P28221 whole entry): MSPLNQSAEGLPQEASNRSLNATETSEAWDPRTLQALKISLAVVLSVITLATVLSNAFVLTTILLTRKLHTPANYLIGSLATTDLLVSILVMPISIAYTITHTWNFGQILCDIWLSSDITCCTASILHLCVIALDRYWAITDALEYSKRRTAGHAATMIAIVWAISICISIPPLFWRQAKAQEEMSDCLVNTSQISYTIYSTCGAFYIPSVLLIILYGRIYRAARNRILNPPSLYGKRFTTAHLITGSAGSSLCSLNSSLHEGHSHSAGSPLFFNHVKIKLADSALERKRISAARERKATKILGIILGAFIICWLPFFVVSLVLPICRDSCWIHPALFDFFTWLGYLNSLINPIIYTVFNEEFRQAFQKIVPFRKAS
# Measurement Description: Binding to human 5HT1Dα receptor ([3H]-5CT displacement)
# Applied Conditions: [3H]-5CT 2 nM; cell membrane preparation; read-out: 5HT1Dα Ki (affinity for the receptors concerned)
Structures can show the parent of a compound that is named as a salt.
Measurement Name: Ki (nM)

Previously resolved entries follow.
>  <Compound>
COc1ccc(NC(=O)N2CCN(c3ccccc3C#N)CC2)cc1N1CCN(C)CC1 [Example 8, fumarate]

>  <Experimental Result>
120

$$$$
>  <Compound>
COc1ccc(NC(=O)N2CCN(c3ccc([N+](=O)[O-])cc3)CC2)cc1N1CCN(C)CC1

>  <Experimental Result>
114

$$$$
>  <Compound>
COc1ccc(NCC(=O)N2CCN(c3ccccc3C)CC2)cc1N1CCN(C)CC1 [Example 12, fumarate]

>  <Experimental Result>
420

$$$$
>  <Compound>
COc1ccc(NC(=O)N2CCN(c3cccc(C)c3C)CC2)cc1N1CCN(C)CC1 [Example 5, fumarate]

>  <Experimental Result>
42

$$$$
>  <Compound>
COc1ccc(NC(=O)N2CCN(c3ccccc3OC)CC2)cc1N1CCN(C)CC1 [Example 2, fumarate]

>  <Experimental Result>
68

$$$$

[I] COc1ccc(NC(=O)N2CCN(c3ccccc3C)CC2)cc1N1CCN(C)CC1
[II] COc1ccc(NC(=O)N2CCN(c3ccc4c(c3)OCO4)CC2)cc1N1CCN(C)CC1 [Example 7, difumarate]
[III] COc1ccc(N2CCN(C(=O)Nc3ccc(OC)c(N4CCN(C)CC4)c3)CC2)cc1 [Example 3, fumarate]
[IV] Cc1ccccc1N1CCN(C(=O)COc2ccc3cccc(N4CCN(C)CC4)c3c2)CC1
Please produce an ascending ranking of these compounds based on Ki. Put the labels in the requested order and list them out.
IV, I, II, III

====

# Tgt: human 5HT1Dβ receptor (Homo sapiens, UniProt P28222)
# Construct: expressed in transfected cells; host or cells: CHO-K1
# Measurement Description: Binding to human 5HT1Dβ receptor ([3H]-5CT displacement)
# Applied Conditions: [3H]-5CT 2 nM; cell membrane preparation; read-out: 5HT1Dβ Ki (affinity for the receptors concerned)
Structures can show the parent of a compound that is named as a salt.
Measurement Name: Ki (nM)

>  <Molecule>
COc1ccc(NC(=O)N2CCN(c3cccc(C)c3C)CC2)cc1N1CCN(C)CC1 [Example 5, fumarate]

>  <Experimental Result>
1.2

$$$$
>  <Molecule>
COc1ccc(NC(=O)N2CCN(c3ccc([N+](=O)[O-])cc3)CC2)cc1N1CCN(C)CC1 [Example 6]

>  <Experimental Result>
5

$$$$

[1] COc1ccc(NC(=O)N2CCN(c3ccccc3C#N)CC2)cc1N1CCN(C)CC1 [Example 8, fumarate]
[2] Cc1ccccc1N1CCN(C(=O)COc2ccc3cccc(N4CCN(C)CC4)c3c2)CC1 [Example 16]
Consider 1 and 2 . Which of these has its Ki at a higher number? Answer format: the label of the selected item.
1
(1: 11.2 nM, 2: 0.28 nM)
